Assay: in vitro
Type: cell-based, human
Conditions: human, Cell viability(%), AVERAGE
readout type: viability at 10 µM (%)

molecule	recorded value
Cc1cc(C2CCCCC2)n(O)c(=O)c1 [Ciclopirox]	94.6

---

Assay: in vitro
Format: cell-based, human
Conditions: human, Cell viability(%), individual samples
Protocol: Supplementary Fig. 11. Effect of FBS serum iron level on Huh-7, HepG2, and HepG2.2.15 cell a Cells were maintained in medium supplemented with 2% FBS or 10% FBS for 1 day and treated with After 6 days, cytotoxicity was measured. b Cells were treated with the ± SD. *p < 0.05 by unpaired two-tailed Student’s t-test.
readout type: viability at 0.2 µM (%)

1) Cc1cc(C2CCCCC2)n(O)c(=O)c1 99.6

---

Experiment: in vitro
Format: cell-based, human
Settings: human, Cell viability(%), individual samples
readout type: viability at 5 µM (%)

1) Cc1cc(C2CCCCC2)n(O)c(=O)c1 91.5

---

Assay: in vitro
Settings: human, Cell viability(%), AVERAGE
readout type: viability at 1 µM

1) Cc1cc(C2CCCCC2)n(O)c(=O)c1 98.7%

---

Test: in vitro
Conditions: human, Cell viability(%), AVERAGE
readout type: viability at 0.2 µM (%)

1) Cc1cc(C2CCCCC2)n(O)c(=O)c1 99.2

---

Assay: in vitro
Format: cell-based, human
Conditions: human, Cell viability(%), AVERAGE
readout type: viability at 0.5 µM (%)

1) Cc1cc(C2CCCCC2)n(O)c(=O)c1 99.7

---

Experiment: in vitro
Conditions: human, Cell viability(%), AVERAGE

compound	viability at 5 µM (%)
Cc1cc(C2CCCCC2)n(O)c(=O)c1 [Ciclopirox]	99.2

---

System: HBV (ayw subtype, genotype D) replicon in HepG2.2.15 cells
Experiment: microbe, parasite or virus in culture
Format: cell-based, Hepatitis B virus
Details: Hepatitis B virus, HepG2.2.15, 144 h, read-out: % of inhibition (ETV =100%), confirmation (6days)
Where a name gives a salt, the structure may show the parent alone.
Listed compounds paired with reported inhibition at 1 µM
readout type: inhibition at 1 µM (%)

compound	assayed system	readout type	recorded value
Clc1ccc(COC(Cn2ccnc2)c2ccc(Cl)cc2Cl)cc1 (stereo not drawn) [Econazole nitrate]	HBV (ayw subtype, genotype D) replicon in HepG2.2.15 cells	inhibition at 1 µM	27.5
Clc1ccc(COC(Cn2ccnc2)c2ccc(Cl)cc2Cl)c(Cl)c1 (stereo not drawn)	HBV (ayw subtype, genotype D) replicon in HepG2.2.15 cells	inhibition at 1 µM	-2.8
NCCc1ccc(O)c(O)c1 [Dopamine hydrochloride]	HBV (ayw subtype, genotype D) replicon in HepG2.2.15 cells	inhibition at 1 µM	67.9
CN1C(C(=O)Nc2ccccn2)=C(O)c2sccc2S1(=O)=O	HBV (ayw subtype, genotype D) replicon in HepG2.2.15 cells	inhibition at 1 µM	79.4
Cc1cc(C2CCCCC2)n(O)c(=O)c1	HBV (ayw subtype, genotype D) replicon in HepG2.2.15 cells	inhibition at 1 µM	88.6
CC(C)(C)c1ccc(C(O)CCCN2CCC(C(O)(c3ccccc3)c3ccccc3)CC2)cc1 (stereo not drawn)	HBV (ayw subtype, genotype D) replicon in HepG2.2.15 cells	inhibition at 1 µM	83.6

---

Assay: in vitro
Format: cell-based, human
Conditions: human, Cell viability(%), individual samples
readout type: viability at 0.5 µM (%)

1. Cc1cc(C2CCCCC2)n(O)c(=O)c1 99.4

// data source = paper PMC6522524
